Numbers sourced from patent US20150322137A1.

Entries annotated with measured IC90, neutralizing activity (hMPV infection of LLC-MK2 cells; GraphPad Prism 6)
- TGT: F protein of human metapneumovirus strain JPS03-178 (type A2), on infectious virus (human metapneumovirus, strain JPS03-178 …)
- METHOD_SUMMARY: cell-based or functional assay
Be sure to follow the number with its unit.

Reference set (2 entries):
INSERT INTO results (binder, result) VALUES
  ('EV046141 (antibody, human IgG1, lambda, V domains shown) VH: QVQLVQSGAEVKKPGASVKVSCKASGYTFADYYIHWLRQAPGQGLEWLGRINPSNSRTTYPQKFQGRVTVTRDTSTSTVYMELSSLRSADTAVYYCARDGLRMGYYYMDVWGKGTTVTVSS VL: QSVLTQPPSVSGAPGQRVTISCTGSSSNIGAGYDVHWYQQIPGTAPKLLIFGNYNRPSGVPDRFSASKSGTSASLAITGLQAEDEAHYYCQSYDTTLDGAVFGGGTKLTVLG', '2.52 µg/mL'),
  ('EV046150 (antibody, human IgG1, kappa, V domains shown) VH: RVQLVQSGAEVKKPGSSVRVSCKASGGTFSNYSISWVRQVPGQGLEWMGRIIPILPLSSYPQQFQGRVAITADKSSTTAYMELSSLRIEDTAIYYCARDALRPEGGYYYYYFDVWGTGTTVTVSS VL: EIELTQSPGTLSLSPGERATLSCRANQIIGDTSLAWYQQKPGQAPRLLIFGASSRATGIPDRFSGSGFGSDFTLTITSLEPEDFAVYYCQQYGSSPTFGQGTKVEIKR', '0.101 µg/mL');

What the record says about EV046135 (antibody, human IgG1, lambda, V domains shown) VH: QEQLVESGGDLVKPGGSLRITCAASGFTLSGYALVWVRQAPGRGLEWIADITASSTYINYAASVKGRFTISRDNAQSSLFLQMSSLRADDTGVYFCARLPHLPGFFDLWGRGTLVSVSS VL: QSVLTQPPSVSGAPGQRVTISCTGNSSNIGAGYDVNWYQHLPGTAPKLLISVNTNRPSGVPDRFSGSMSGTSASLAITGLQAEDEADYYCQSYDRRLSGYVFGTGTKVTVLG : IC90, neutralizing activity (hMPV infection of LLC-MK2 cells; GraphPad Prism 6) is 0.277 µg/mL

What the record says about EV046113 (antibody, human IgG1, kappa, V domains shown) VH: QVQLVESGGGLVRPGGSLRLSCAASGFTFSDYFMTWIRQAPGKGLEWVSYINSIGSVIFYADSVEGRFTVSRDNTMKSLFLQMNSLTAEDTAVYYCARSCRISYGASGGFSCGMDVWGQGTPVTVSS VL: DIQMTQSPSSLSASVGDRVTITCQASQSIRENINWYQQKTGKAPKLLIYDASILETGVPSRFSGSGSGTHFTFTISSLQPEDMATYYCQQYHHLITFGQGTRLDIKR : IC90, neutralizing activity (hMPV infection of LLC-MK2 cells; GraphPad Prism 6) is 1.56 µg/mL
